The values you see were collected from the supplement of paper PMC4862054.

- System: CAL-85-1
- Protocol notes: normalised response (% of control), CellTiter-Glo; higher = more viable cells (100 = DMSO, 0 = benzethonium chloride kill control)
- Experimental conditions: incubation time: 72 h
Readout kind: normalised response (%)
Numbers only, in %.

Nc1nccc(-c2c(-c3ccc(F)cc3)ncn2C2CCCCC2)n1 (10 nM); 106

Please supply normalised response for each of the following items, keeping them in order.
1. Cn1cnc2c(F)c(Nc3ccc(Br)cc3F)c(C(=O)NOCCO)cc21 [MEK-162] (100 nM)
2. CN(c1ccccc1CNc1nc(Nc2ccc3c(c2)CC(=O)N3)ncc1C(F)(F)F)S(C)(=O)=O (10 nM)
3. CN1CCN(c2ccc3nc(-c4c(N)c5c(F)cccc5[nH]c4=O)[nH]c3c2)CC1 [Dovitinib] (1 nM)

Output:
99.2
94.6
100
